In this section we review reported Emax values for a set of compounds.
- measurementTarget: hα7-wt nAChR (Homo sapiens)
- Construct: expressed in transfected cells
- Sequence (P36544 23-502): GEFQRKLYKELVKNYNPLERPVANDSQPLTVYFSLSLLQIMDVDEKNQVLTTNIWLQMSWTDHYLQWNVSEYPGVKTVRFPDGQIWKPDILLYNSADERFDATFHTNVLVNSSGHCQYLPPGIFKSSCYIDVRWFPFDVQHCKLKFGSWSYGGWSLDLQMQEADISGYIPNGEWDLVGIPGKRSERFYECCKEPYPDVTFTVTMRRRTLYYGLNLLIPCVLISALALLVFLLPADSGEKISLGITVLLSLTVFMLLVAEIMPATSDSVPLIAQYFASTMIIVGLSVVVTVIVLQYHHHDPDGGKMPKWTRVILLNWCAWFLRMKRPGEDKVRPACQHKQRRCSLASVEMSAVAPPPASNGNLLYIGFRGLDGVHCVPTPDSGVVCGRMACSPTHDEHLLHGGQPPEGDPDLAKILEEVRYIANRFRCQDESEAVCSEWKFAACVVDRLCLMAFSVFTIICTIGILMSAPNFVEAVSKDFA
- assayExplanation: Ca2+ flux imaging (FDSS) (Protocol B), potentiation of the choline response
- Format: cell-based
- conditionDescription: Ca2+ assay as described in D.1; read-out: % Efficacy
Just the number in %, nothing appended.

Answered examples (5):
[
  {
    "compound": "Cc1cc(-c2cc(Nc3cccc(OC(F)(F)F)c3)nn2CC(=O)NC2CC2)cc(C)n1 [compound 147]",
    "outputUnit": "%",
    "readoutValue": 643
  },
  {
    "compound": "CCNC(=O)Cn1nc(Nc2ccc(F)c(F)c2F)cc1-c1ccnc(C)c1 [compound 125]",
    "outputUnit": "%",
    "readoutValue": 972
  },
  {
    "compound": "CCNC(=O)Cn1nc(Nc2ccc(F)c(C(F)(F)F)c2)cc1-c1cc(C)nc(C)c1 [compound 152]",
    "outputUnit": "%",
    "readoutValue": 856
  },
  {
    "compound": "Cc1cc(-c2cc(Nc3cccc(Cl)c3F)nn2CC(=O)NCC2CC2)ccn1 [compound 170]",
    "outputUnit": "%",
    "readoutValue": 783
  },
  {
    "compound": "Cc1cc(-c2cc(Nc3ccc4c(c3)OC(F)(F)O4)nn2CC(=O)NC2CC2)cc(C)n1 [compound 145]",
    "outputUnit": "%",
    "readoutValue": 736
  }
]

Q: Recorded Emax of CCNC(=O)Cn1nc(Nc2cc(F)c(F)c(F)c2)cc1-c1cc(C)nc(C)c1 [compound 167] , please.
A: 762

Q: Continue with Cc1cc(-c2cc(Nc3cccc(Cl)c3F)nn2CC(=O)NC2CCC2)cc(C)n1 [compound 175]
A: 462

Q: Continue with Cc1cc(-c2cc(Nc3ccc(F)c(C(F)(F)F)c3)nn2CCC(=O)N(C)C)cc(C)n1 [compound 161]
A: 737

* * *

- measurementTarget: hα7-wt nAChR (Homo sapiens)
- assayExplanation: Ca2+ flux imaging (FDSS) (Protocol B), potentiation of the choline response
- conditionDescription: Ca2+ assay as described in D.1; "<5" = activity did not reach a top plateau at maximal concentration
In this section we review reported EC50 values for a set of compounds.
Just the number in nM, nothing appended.

Q: Recorded EC50 of `CCNc1cc(-c2cc(Nc3cc(F)cc(F)c3)nn2C[C@@H](O)CC)ccn1` , please.
A: 955

Q: Continue with `CNC(=O)Cn1nc(Nc2cccc(OC(F)(F)F)c2)cc1-c1cc(C)nc(C)c1`
A: 933

Q: Continue with `CCNC(=O)Cn1nc(Nc2ccc3c(c2)OC(F)(F)O3)cc1-c1ccc2c(c1)OCCO2`
A: 324

Q: Continue with `Cc1cc(-c2cc(Nc3cccc(OC(F)(F)F)c3)nn2CC(=O)NC2CCC2)cc(C)n1`
A: 372
